- Target entity: α7 nAChR (rat α7/CHO cells) (Rattus norvegicus, UniProt Q05941)
- Sequence (Q05941 23-502): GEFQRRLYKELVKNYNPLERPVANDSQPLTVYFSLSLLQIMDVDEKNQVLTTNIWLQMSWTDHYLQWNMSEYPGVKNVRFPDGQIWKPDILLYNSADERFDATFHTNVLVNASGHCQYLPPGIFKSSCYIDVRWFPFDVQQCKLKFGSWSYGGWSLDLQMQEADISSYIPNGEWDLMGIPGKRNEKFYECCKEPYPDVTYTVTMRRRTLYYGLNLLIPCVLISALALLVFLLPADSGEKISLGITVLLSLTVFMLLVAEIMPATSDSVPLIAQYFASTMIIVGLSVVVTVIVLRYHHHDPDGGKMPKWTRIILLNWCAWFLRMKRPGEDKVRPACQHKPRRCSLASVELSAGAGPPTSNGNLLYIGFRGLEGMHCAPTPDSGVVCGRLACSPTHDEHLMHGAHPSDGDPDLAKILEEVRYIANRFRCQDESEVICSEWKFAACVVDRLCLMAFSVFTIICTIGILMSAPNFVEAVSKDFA
- Experimental protocol: Evaluation of modulators of α7 nAChRs using the IonFlux HT automated patch clamp system (potentiation of EC20 ACh-evoked currents)
- Experimental context: percent potentiation of ACh (EC20, approx. 60 μM) response in α7/CHO cells; 6-point dose response 0.03-10 μM; whole cell patch clamp
Property label: EC50 (µM)

Some compounds with recorded EC50:
[[record]]
compound = "COc1ccc(Cl)cc1OC[C@H]1[C@H](c2ccc(NS(C)(=O)=O)cc2)C1(C)C (single isomer, unassigned)"
unit_label = "µM"
observed_value = 0.193

[[record]]
compound = "COc1ccc(Cl)cc1OC[C@H]1[C@H](c2ccc(S(N)(=O)=O)cc2)C1(C)C (single isomer, unassigned)"
unit_label = "µM"
observed_value = 3.64

[[record]]
compound = "COc1ccc(Cl)cc1OC[C@@H]1[C@@H](c2ccc(S(N)(=O)=O)cc2)C1(C)C (racemic) [Exp. 1]"
unit_label = "µM"
observed_value = 0.105

[[record]]
compound = "COc1cc(F)ccc1OC[C@H]1C[C@@H]1c1ccc(S(N)(=O)=O)cc1 (single isomer, unassigned)"
unit_label = "µM"
observed_value = 2.94

[[record]]
compound = "COc1ccc(OC[C@@H]2[C@@H](c3ccc(S(N)(=O)=O)cc3)C2(C)C)c(OC)n1 (single isomer, unassigned)"
unit_label = "µM"
observed_value = 3.88


I. COc1ccc(Cl)cc1CC[C@H]1C[C@@H]1c1ccc(S(N)(=O)=O)cc1 (single isomer, unassigned)
II. CC1(C)[C@@H](COc2ccc(F)cc2C(F)(F)F)[C@@H]1c1ccc(S(N)(=O)=O)cc1 (single isomer, unassigned)
Q: Task for the reader: decide whether I or II has the larger EC50. # reply format: chosen label
Result: I
(I: 0.626 µM, II: 0.429 µM)

I. Cc1cc(F)ccc1OC[C@H]1[C@H](c2ccc(NS(N)(=O)=O)cc2)C1(C)C (single isomer, unassigned)
II. CC1(C)[C@@H](COc2ccc(F)cc2C#N)[C@@H]1c1ccc(S(N)(=O)=O)cc1 (single isomer, unassigned)
III. COc1ccc(Cl)cc1OC[C@@H]1C[C@@H]1c1ccc(S(N)(=O)=O)cc1 (single isomer, unassigned)
Q: List from greatest to least EC50. The labels, placed in the requested order, form the answer.
Result: III, II, I

A. NS(=O)(=O)c1ccc([C@H]2C[C@@H]2COc2ccc(F)cc2C(F)(F)F)cc1 (single isomer, unassigned)
B. CC1(C)[C@@H](COc2cccnc2)[C@@H]1c1ccc(S(N)(=O)=O)cc1 (single isomer, unassigned)
C. Cc1ccc(SC[C@@H]2[C@@H](c3ccc(S(N)(=O)=O)cc3)C2(C)C)cc1 (single isomer, unassigned)
Q: Order the entries by their reported EC50, beginning at the minimum. The labels, placed in the requested order, form the answer.
Result: C, A, B
